biological target: human Tissue Factor Pathway Inhibitor-1α (TFPI-1α) (human), P10646; conditions: modification not given
Sequence (P10646 29-304): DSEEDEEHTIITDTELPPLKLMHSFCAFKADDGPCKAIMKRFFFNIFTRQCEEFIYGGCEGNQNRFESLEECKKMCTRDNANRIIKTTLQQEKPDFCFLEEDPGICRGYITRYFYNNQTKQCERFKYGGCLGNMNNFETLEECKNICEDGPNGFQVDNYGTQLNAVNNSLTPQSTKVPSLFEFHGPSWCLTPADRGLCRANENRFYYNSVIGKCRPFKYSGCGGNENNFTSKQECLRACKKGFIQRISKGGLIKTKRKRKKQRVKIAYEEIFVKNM
Assay Readout: EC50 (nM)
Lab book: enter the figure in nM, no units written.

// EC50 lookup, key: FQSKGNVFVTGYFARLRAKL [JBT0720]
220

These data points were gathered from patent US20180155399A1.
